TGT: KPNB1 HEAT (importin subunit beta-1, HEAT repeat) (human) (UniProt Q14974)
Sequence (Q14974 whole entry, the tested form may be a part): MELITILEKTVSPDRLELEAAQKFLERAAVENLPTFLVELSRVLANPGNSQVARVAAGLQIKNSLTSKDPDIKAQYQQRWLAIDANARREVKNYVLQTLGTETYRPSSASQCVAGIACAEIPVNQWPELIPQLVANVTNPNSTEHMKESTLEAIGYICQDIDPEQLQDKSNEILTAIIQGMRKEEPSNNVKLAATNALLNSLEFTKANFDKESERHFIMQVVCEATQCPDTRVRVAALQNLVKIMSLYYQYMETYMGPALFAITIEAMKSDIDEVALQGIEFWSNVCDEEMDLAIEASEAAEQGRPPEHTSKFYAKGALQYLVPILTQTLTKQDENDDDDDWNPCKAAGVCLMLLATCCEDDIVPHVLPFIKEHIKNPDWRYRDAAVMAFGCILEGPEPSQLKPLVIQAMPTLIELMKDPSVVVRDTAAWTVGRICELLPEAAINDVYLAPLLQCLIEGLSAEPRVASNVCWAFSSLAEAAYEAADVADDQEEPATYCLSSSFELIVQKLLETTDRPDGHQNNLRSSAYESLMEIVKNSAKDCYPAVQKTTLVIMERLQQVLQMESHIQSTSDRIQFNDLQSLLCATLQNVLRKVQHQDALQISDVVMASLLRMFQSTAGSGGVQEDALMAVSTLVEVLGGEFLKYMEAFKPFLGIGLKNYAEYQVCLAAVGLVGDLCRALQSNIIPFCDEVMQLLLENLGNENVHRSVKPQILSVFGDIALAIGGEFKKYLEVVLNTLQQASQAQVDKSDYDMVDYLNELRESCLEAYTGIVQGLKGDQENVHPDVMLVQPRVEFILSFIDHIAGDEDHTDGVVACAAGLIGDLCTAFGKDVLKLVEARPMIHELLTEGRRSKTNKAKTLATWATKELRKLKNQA
ASSAY DETAILS: fluorescence polarisation; competition: unlabelled peptide in serial dilution against the protein domain (master mix at four times the KD) with its FITC-labelled probe peptide; 50 mM KPO4 or NaPO4 pH 7.5; Ki calculated from IC50
REPORTED PROPERTY: pIC50
Conceptually, pIC50 converts a concentration in mol/L into minus its log10.

stdin: GET /values?readout=pIC50&item= Ac-AYAPPVFVFQKDKGQK-NH2 [RANBP3 11-26 peptide]
stdout: 2.66

stdin: If you can, please state the reported pIC50 value of Ac-NPPVATFVFGQSSNPY-NH2 [NUP153 1220-1234 peptide with an extra C-terminal Y] .
stdout: 4.31
